Give measured EC90 for each item. Keep answers brief.
- Tested on: P. putida (NBRC/ATCC #100650)
- METHOD: Antibacterial resazurin assay, laboratory strain
- PARTICULARS: Pseudomonas putida, ATCC100650, 18 h, read-out: Ppu EC90

Q. Item `N=C(N)Nc1ccc(-c2ccc(C(=O)N3CCc4ccccc43)o2)c(Cl)c1` with P. putida (NBRC/ATCC #100650) - EC90?
A. > 300 µM

Q. Item `N=C(N)Nc1ccc(-c2ccc(-c3ccc(NC(=N)N)cc3)o2)cc1` with P. putida (NBRC/ATCC #100650) - EC90?
A. 14.3 µM

Q. Item `N=C(N)Nc1ccc(-c2ccc(C(=O)N3CCc4cc(NC(=N)N)ccc43)o2)c(Cl)c1` with P. putida (NBRC/ATCC #100650) - EC90?
A. 147 µM

Q. Item `N=C(N)Nc1ccc2c(c1)CCN2C(=O)c1ccc(-c2ccccc2Cl)o1` with P. putida (NBRC/ATCC #100650) - EC90?
A. 84.9 µM
